test-method-notes: Inhibition of Bacillus pasteurii CCM 2056 urease by steady state kinetic study
Design: species or system Sporosarcina pasteurii
assay-metric: pIC50
Answers are plain numbers, as −log10 of the molar value.

I'm hoping you can list pIC50 for every compound here, please.
1. CP(O)(=S)CNC(=O)CNC(=O)OCc1ccccc1 (stereo unspecified)
2. CP(O)(=S)CNC(=O)OCc1ccccc1 (stereo unspecified)

-- reply
5.74
3.95

====

test-method-notes: Inhibition of Proteus vulgaris CCM 1956 urease by steady state kinetic study
Provide the recorded pKi for the entries that follow.
One number for each entry, as −log10 of the molar value.

• CP(=O)(O)CNC(=O)[C@@H](N)COCc1ccccc1 = 4.49
• CP(=O)(O)CNC(=O)CN = 4.52
• CC(C)[C@H](N)C(=O)NCP(C)(=O)O = 3.68
• CP(=O)(O)CNC(=O)[C@@H](N)Cc1ccccc1 = 3.75

I'm hoping you can list pKi for every compound here, please.
1. CP(O)(=S)CNC(=O)OCc1ccccc1 (stereo unspecified)
2. CP(=O)(O)CN
3. CP(O)(=S)CNC(=O)CNC(=O)OCc1ccccc1 (stereo unspecified)
4. CP(=O)(O)CNC(=O)CNC(=O)OCc1ccccc1
5. CP(=O)(O)CNC(=O)[C@@H](N)CO
6. CP(=O)(O)CNC(=O)OCc1ccccc1

-- reply
1. 4.85
2. 3.37
3. 6.35
4. 3.75
5. 4.39
6. 4.19

-- ask # query: pKi of entry CNCP(C)(=O)O
-- reply 4.57

====

test-method-notes: Inhibition of Klebsiella aerogenes urease
assay-metric: pKi
Answers are plain numbers, as −log10 of the molar value.

-- ask # query: pKi of entry CC(=O)NO [ACETOHYDROXAMIC ACID]
-- reply 5.59

====

target-or-system: Urease (Helicobacter pylori)
Sequence (Q0PXQ5 whole entry): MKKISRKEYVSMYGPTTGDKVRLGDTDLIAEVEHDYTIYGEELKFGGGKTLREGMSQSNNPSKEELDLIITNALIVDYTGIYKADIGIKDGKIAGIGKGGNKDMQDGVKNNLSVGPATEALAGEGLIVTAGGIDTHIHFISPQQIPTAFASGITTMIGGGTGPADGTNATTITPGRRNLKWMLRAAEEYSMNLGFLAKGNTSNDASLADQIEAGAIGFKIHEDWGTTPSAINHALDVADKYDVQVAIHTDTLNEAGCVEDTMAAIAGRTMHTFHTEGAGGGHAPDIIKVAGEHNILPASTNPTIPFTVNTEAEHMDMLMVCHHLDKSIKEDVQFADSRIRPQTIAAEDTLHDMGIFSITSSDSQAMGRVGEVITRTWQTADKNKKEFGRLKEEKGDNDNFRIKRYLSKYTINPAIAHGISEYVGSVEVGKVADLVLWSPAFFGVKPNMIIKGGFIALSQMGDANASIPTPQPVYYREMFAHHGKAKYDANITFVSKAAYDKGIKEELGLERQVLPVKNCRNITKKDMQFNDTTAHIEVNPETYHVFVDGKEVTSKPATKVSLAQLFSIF
test-method-notes: Inhibition of Helicobacter pylori urease
assay-metric: pIC50
Give bare numbers, as −log10 of the molar value.

-- ask What value of pIC50 on Urease (Helicobacter pylori) does NCC(=O)NCC(=O)NO have?
-- reply 6.10

====

test-method-notes: Inhibition of Bacillus pasteurii CCM 2056 urease by steady state kinetic study
Parameters: species or system Sporosarcina pasteurii
assay-metric: pKi
One number for each entry, as −log10 of the molar value.

- CP(=O)(O)CNC(=O)CN: 4.68

I'm hoping you can list pKi for every compound here, please.
1. CC(C)[C@H](N)C(=O)NCP(C)(=O)O
2. CP(=O)(O)CNC(=O)OCc1ccccc1
3. CP(=O)(O)CNC(=O)CNC(=O)OCc1ccccc1
4. CP(=O)(O)CNC(=O)[C@@H](N)CO

-- reply
1. 3.92
2. 4.37
3. 3.87
4. 4.43

I'm hoping you can list pKi for every compound here, please.
1. CP(O)(=S)CNC(=O)OCc1ccccc1 (configuration not stated)
2. CP(=O)(O)CN
3. CNCP(C)(=O)O
4. CP(O)(=S)CNC(=O)CNC(=O)OCc1ccccc1 (configuration not stated)
5. CP(=O)(O)CNC(=O)[C@@H](N)COCc1ccccc1
6. CP(=O)(O)CNC(=O)[C@@H](N)Cc1ccccc1
7. NP(N)(=O)Oc1ccccc1 [PHENYL PHOSPHORDIAMIDATE]

-- reply
1: 4.76; 2: 3.47; 3: 4.74; 4: 6.77; 5: 4.60; 6: 3.67; 7: 9.22

====

test-method-notes: Inhibition of Bacillus pasteurii CCM 2056 urease by steady state kinetic study
Design: species or system Sporosarcina pasteurii
assay-metric: IC50 (µM)
Numbers only, in µM.

Sample answers from the record:
• CP(=O)(O)CN = 1100
• CP(=O)(O)CNC(=O)OCc1ccccc1 = 123
• CP(=O)(O)CNC(=O)[C@@H](N)COCc1ccccc1 = 80

I'm hoping you can list IC50 for every compound here, please.
1. CNCP(C)(=O)O
2. CP(=O)(O)CNC(=O)CNC(=O)OCc1ccccc1
3. CP(=O)(O)CNC(=O)[C@@H](N)Cc1ccccc1
4. CP(=O)(O)CNC(=O)[C@@H](N)CO
5. CC(C)[C@H](N)C(=O)NCP(C)(=O)O
6. CP(=O)(O)CNC(=O)CN

-- reply
1: 60; 2: 450; 3: 600; 4: 150; 5: 485; 6: 60
